- assay_protocol: in vitro
- condition_parameters: human, hela cells, % viability
readout_kind: viability at 28.5 h, 10 µM (%)
Numbers only here, please. The scale is %.

Observe how each entry below is paired with its result.
compound	readout_kind	val
CCNC(=O)Nc1ccc(-c2ccc(SC)cc2)c2ccccc12	viability at 28.5 h, 10 µM	90.4
O=C(Nc1ccc2oc(-c3cccnc3)nc2c1)c1sc2cc(Cl)ccc2c1Cl	viability at 28.5 h, 10 µM	97.4
NC(=O)CN1CC2(CCN(Cc3cccc4cccnc34)CC2)c2ccccc21	viability at 28.5 h, 10 µM	123
CCN1CC(C(=O)N2CCN(C(=O)c3ccccc3F)CC2)CC1=O (stereo not shown)	viability at 28.5 h, 10 µM	92.3
O=C(c1cc(Br)cc2c1OCC2)N1CCCCC1	viability at 28.5 h, 10 µM	91.8

Using the record for O=S(=O)(c1ccc(I)cc1)n1ccc2c(N3CCNCC3)cncc21 [CBK081326C] , state its measured viability at 28.5 h, 10 µM.
84.9

Using the record for `COc1ccc(-n2cc(-c3ccc(F)cc3)nn2)cc1OC` , state its measured viability at 28.5 h, 10 µM.
89.8

Using the record for `Cc1ccc(SCCNS(=O)(=O)c2cccc([N+](=O)[O-])c2)cc1` , state its measured viability at 28.5 h, 10 µM.
81.4

Using the record for `CSc1nnnn1-c1cccc(NC(=O)N2CCCN(C)CC2)c1` , state its measured viability at 28.5 h, 10 µM.
78.1

Using the record for `CCc1n[nH]c(SCc2ccc(Br)cc2)n1` , state its measured viability at 28.5 h, 10 µM.
90.9
